- experiment-summary: qHTS Assay for Lipid Storage Modulators (AID 1519)
- condition-details: Drosophila S3 cells, BODIPY lipid droplet/cell ratio, laser cytometry; measured here: cell count channel max response; cells loaded with oleic acid
- Description: NIH Molecular Libraries Probe Production Centers Network [MLPCN] NIH Chemical Genomics Center [NCGC] Assay Submitter (PI): Beller, Mathias; Max-Planck-Institut fur Biophysikalische Chemie […] We dispensed 4 uL of cells at 1.25 x 10^6 cells/mL into LoBase Aurora COC 1,536-well plates (black walled, clear bottom) with a bottle-valve solenoid-based dispenser (Aurora) to obtain 5,000 cells/well. […] The ratio of the total intensity in PMT channel 1 over total intensity of channel 3 was also calculated. […]
Results filed as inconclusive are left out.
Answer each item with its documented max response.
Answers are plain numbers, in %.

Some entries whose results are on file:
Cc1c(Cl)cccc1Nc1ccccc1C(=O)O ... -6.86
CN1CCN(C2Cc3ccccc3Sc3ccc(Cl)cc32)CC1 (configuration not stated) ... -11.4
O=C(O)c1ccccc1O ... 11.4

// input: 4 molecules below; output: max response for each
1. CC(C(O)c1ccc(O)cc1)N1CCC(Cc2ccccc2)CC1 (configuration not stated)
2. CN(C)CCN(Cc1ccccc1)c1ccccn1
3. OCc1cc(C(O)CNCCCCCCOCCCCc2ccccc2)ccc1O (configuration not stated)
4. CC(=O)c1ccc2c(c1)N(CCCN(C)C)c1ccccc1S2

1. 9.6
2. 12.3
3. 12.8
4. 0.996

###

Answer each item with its documented activity change, negative = inhibition.
- experiment-summary: qHTS Assay for Lipid Storage Modulators (AID 1519); as to activity change, negative = inhibition: % is scaled to controls: 0 for no effect and ±100 for the full control effect
- condition-details: Drosophila S3 cells, BODIPY lipid droplet/cell ratio, laser cytometry; at 57.5 µM (top of the series); cells loaded with oleic acid
Records with an inconclusive call do not appear.
Answers are plain numbers, in %.

CNCCCC1c2ccccc2C=Cc2ccccc21 ... 0.497
CC1(C)[C@@H]2CC[C@@]1(C)C(=O)C2 ... 1.5
O=C(CCCN1CCN(c2ccccn2)CC1)c1ccc(F)cc1 ... 15.3
CC(C)(C)c1onc(OCP(=O)(O)O)c1CC(N)C(=O)O (centres undefined) ... -0.922
Cc1cc(N)c2ccccc2[n+]1CCCCCCCCCC[n+]1c(C)cc(N)c2ccccc21 ... -10.5
OCC(O)CN1CCN(c2ccccc2)CC1 (centres undefined) ... 11.8

// input: 2 molecules below; output: activity change, negative = inhibition for each
1. CN(C)CC[C@@H](c1ccc(Cl)cc1)c1ccccn1
2. NC(=O)N/N=C/c1ccc([N+](=O)[O-])o1

1: -0.0513; 2: -28.3

###

- experiment-summary: qHTS assay for small molecule antagonists of peroxisome proliferator-activated receptor delta signaling (AID 588535);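 also: cells co-treated with a PPAR-delta agonist as stimulator during compound exposure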
- condition-details: HEK293T PPARd-UAS-bla, beta-lactamase FRET ratio, 18 h; 460 nm channel
Inconclusive results are not listed.
endpoint-label: max response (%)
One number for each entry, in %.

O=C1O[C@H]([C@@H](O)CO)C(O)=C1O ... -14.8

// input: 7 molecules below; output: max response for each
1. CCCCC(CC)COC(=O)c1ccccc1O (stereo not given)
2. [Cl][In]([Cl])[Cl]
3. O=C1NS(=O)(=O)c2ccccc21
4. CN(C)CCOC(C)(c1ccccc1)c1ccccn1 (stereo not given)
5. CC12CCC(CC1)C(C)(C)O2
6. CN(C)CCC=C1c2ccccc2CCc2ccccc21
7. NC(=O)N/N=C/c1ccc([N+](=O)[O-])o1

[-34.6, 29.3, 2.93, -48.6, -10.6, 10, 4.74]

// input: 2 molecules below; output: max response for each
1. Oc1cccc(O)c1
2. CC(O)COc1ccccc1 (stereo not given)

[15.8, 6.24]
